This collection of values is drawn from patent US20050112126A1.

# Target Of Assay: T1, VEGF (human, UniProt P15692-4 27-191, limits assumed)
# T1 construct: Biotinylated in the KDR-IgG ELISA, amine-coupled to the chip in BIAcore; also called biotinylated VEGF; vascular endothelial growth factor
# T1 sequence (P15692 other isoform, or with tags, fused parts or gaps limits assumed): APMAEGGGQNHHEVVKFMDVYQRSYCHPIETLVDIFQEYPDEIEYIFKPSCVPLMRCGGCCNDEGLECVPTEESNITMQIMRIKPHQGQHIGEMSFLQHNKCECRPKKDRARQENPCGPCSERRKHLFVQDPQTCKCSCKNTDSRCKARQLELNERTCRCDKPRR
# Measurement Notes: competitive phage-ELISA, relative to pY0192
Parameter: IC50 (mut)/IC50 (wt) (ratio)

[
  {
    "Binder": "pY0192 VL N31A (Fab, V domains shown, Ala-scan variant of pY0192; Fab on phage; also called N31A (VL)) VH: EVQLVESGGGLVQPGGSLRLSCAASGYTFTNYGINWVRQAPGKGLEWVGWINTYTGEPTYAADFKRRFTFSLDTSKSTAYLQMNSLRAEDTAVYYCAKYPHYYGSSHWYFDVWGQGTL VL: DIQLTQSPSSLSASVGDRVTITCRANEQLSAYLNWYQQKPGKAPKVLIYFTSSLHSGVPSRFSGSGSGTDFTLTISSLQPEDFATYYCQQYSTVPWTFGQGTKVEIKR",
    "Readout Number": 2
  },
  {
    "Binder": "pY0192 VH E57A (Fab, V domains shown, Ala-scan variant of pY0192; Fab on phage) VH: EVQLVESGGGLVQPGGSLRLSCAASGYTFTNYGINWVRQAPGKGLEWVGWINTYTGAPTYAADFKRRFTFSLDTSKSTAYLQMNSLRAEDTAVYYCAKYPHYYGSSHWYFDVWGQGTL VL: DIQLTQSPSSLSASVGDRVTITCRANEQLSNYLNWYQQKPGKAPKVLIYFTSSLHSGVPSRFSGSGSGTDFTLTISSLQPEDFATYYCQQYSTVPWTFGQGTKVEIKR",
    "Readout Number": 2
  },
  {
    "Binder": "pY0192 VL P95A (Fab, V domains shown, Ala-scan variant of pY0192; Fab on phage) VH: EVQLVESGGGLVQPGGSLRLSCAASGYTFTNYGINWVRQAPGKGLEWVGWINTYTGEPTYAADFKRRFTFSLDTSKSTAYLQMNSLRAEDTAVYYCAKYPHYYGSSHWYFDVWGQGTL VL: DIQLTQSPSSLSASVGDRVTITCRANEQLSNYLNWYQQKPGKAPKVLIYFTSSLHSGVPSRFSGSGSGTDFTLTISSLQPEDFATYYCQQYSTVAWTFGQGTKVEIKR",
    "Readout Number": 3
  },
  {
    "Binder": "pY0192 VH F110A (Fab, V domains shown, Ala-scan variant of pY0192; Fab on phage) VH: EVQLVESGGGLVQPGGSLRLSCAASGYTFTNYGINWVRQAPGKGLEWVGWINTYTGEPTYAADFKRRFTFSLDTSKSTAYLQMNSLRAEDTAVYYCAKYPHYYGSSHWYADVWGQGTL VL: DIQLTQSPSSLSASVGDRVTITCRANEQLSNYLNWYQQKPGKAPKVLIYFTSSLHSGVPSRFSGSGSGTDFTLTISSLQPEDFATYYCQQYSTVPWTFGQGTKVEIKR",
    "Readout Number": 25
  },
  {
    "Binder": "pY0192 VH A62S (Fab, V domains shown, Ala-scan variant of pY0192; Fab on phage) VH: EVQLVESGGGLVQPGGSLRLSCAASGYTFTNYGINWVRQAPGKGLEWVGWINTYTGEPTYASDFKRRFTFSLDTSKSTAYLQMNSLRAEDTAVYYCAKYPHYYGSSHWYFDVWGQGTL VL: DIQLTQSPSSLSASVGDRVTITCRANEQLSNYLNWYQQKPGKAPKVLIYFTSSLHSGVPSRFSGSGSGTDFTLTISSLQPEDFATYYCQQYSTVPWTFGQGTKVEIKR",
    "Readout Number": 1
  },
  {
    "Binder": "pY0192 VL L33A (Fab, V domains shown, Ala-scan variant of pY0192; Fab on phage) VH: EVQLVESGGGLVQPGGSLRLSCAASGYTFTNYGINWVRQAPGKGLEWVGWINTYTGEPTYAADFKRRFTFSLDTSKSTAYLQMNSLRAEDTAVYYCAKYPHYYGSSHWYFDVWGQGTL VL: DIQLTQSPSSLSASVGDRVTITCRANEQLSNYANWYQQKPGKAPKVLIYFTSSLHSGVPSRFSGSGSGTDFTLTISSLQPEDFATYYCQQYSTVPWTFGQGTKVEIKR",
    "Readout Number": 2
  }
]
